# assayed system: T1, CTNI quality control recombinant protein (PK2-CTNI-1, 170120, produced by the applicant) (human, UniProt P19429 2-210, limits assumed)
# T1 construct: also called cardiac troponin I
# T1 sequence (P19429 2-210 limits assumed): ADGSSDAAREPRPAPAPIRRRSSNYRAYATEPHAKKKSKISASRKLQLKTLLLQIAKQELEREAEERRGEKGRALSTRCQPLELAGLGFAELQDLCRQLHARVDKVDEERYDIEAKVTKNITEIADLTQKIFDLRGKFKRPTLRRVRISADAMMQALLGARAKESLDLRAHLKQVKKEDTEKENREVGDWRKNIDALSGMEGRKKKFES
# run description: indirect ELISA, cTnI coated 1 ug/ml, antibody 0.32 ug/ml
OD 450 nm (reference 630 nm): recorded values
I only need the number, in OD, no unit after it.

// known answers, use as guide
Mutation 5 (antibody, V domains shown, built as for Mutation 1) VH: EVQLQQSGAELVKPGASVKLSCTASGFNLKDYFMHWMKQRTEQGLDWIGRIEPEDAETRYAPEFQGKATITADTSSNTAYLQLSTLTSEDTAVYYCARYYSSYIPFVYWGQGTLVTASA VL: DVVMTQTPLSLSVSLGDQASISCRSSQSIIYSNKHTYLHWYLQKPGQSPKLLIFQISQRFSGVPDRFSGSGSGTDFTLKINRVEAEDLGVYFCSNSTHLPFTFGSGTKLEIKR
0.189
Mutation 2 (antibody, V domains shown, built as for Mutation 1) VH: EVQLQQSGAELVKPGASVKLSCTASGFNLKEYFMHWMKQRTEQGLDWIGRIDPEDAETRYAPEFQGKATITADTSSNTAYLQLSTLTSEDTAVYYCARYYTSYIPFVYWGQGTLVTASA VL: DVVMTQTPLSLSVSLGDQASISCRSSQSIIYSNRHTYLHWYLQKPGQSPKLLIFQISNRFSGVPDRFSGSGSGTDFTLKINRVEAEDLGVYFCSQSTHLPFTFGSGTKLEIKR
0.233
Mutation 1 (antibody, V domains shown, No residue numbers are printed, so each chain is built as FR1-CDR1-FR2-CDR2-FR3-CDR3-FR4-constant) VH: EVQLQQSGAELVKPGASVKLSCTASGFNLKDYFMHWMKQRTEQGLDWIGRIDPEDAETRYAPEFQGKATITADTSSNTAYLQLSTLTSEDTAVYYCARYYSSYIPFVYWGQGTLVTASA VL: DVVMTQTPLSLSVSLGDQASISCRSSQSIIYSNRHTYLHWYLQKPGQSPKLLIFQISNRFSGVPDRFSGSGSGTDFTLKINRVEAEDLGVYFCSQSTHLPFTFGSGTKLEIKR
0.341
Mutation 4 (antibody, V domains shown, built as for Mutation 1) VH: EVQLQQSGAELVKPGASVKLSCTASGFNLKDYFMHWMKQRTEQGLDWIGRIEPEDAETRYAPEFQGKATITADTSSNTAYLQLSTLTSEDTAVYYCARYYSSYIPFVYWGQGTLVTASA VL: DVVMTQTPLSLSVSLGDQASISCRSSQSIIYSNKHTYLHWYLQKPGQSPKLLIFQISNRFSGVPDRFSGSGSGTDFTLKINRVEAEDLGVYFCSNSTHLPFTFGSGTKLEIKR
0.314

Now consider the entry below.
Reported OD 450 nm (reference 630 nm) for Mutation 3 (antibody, V domains shown, built as for Mutation 1) VH: EVQLQQSGAELVKPGASVKLSCTASGFNLKEYFMHWMKQRTEQGLDWIGRIDPEDAETRYAPEFQGKATITADTSSNTAYLQLSTLTSEDTAVYYCARYYTSYIPFVYWGQGTLVTASA VL: DVVMTQTPLSLSVSLGDQASISCRSSQSIIYSNRHTYLHWYLQKPGQSPKLLIFQISQRFSGVPDRFSGSGSGTDFTLKINRVEAEDLGVYFCSQSTHLPFTFGSGTKLEIKR : what is it?
0.301
